tested on: OVCAR-4; assay: NCI tumour cell line growth inhibition, 48 h
Calls of active or inactive are those of the source. No stated cut-off is given here; in the data, active = GI50 up to about 1.1 µM and inactive = higher.
Each record here notes measured GI50.

Past entries and their recorded results:
COc1ccc(C2C(Cl)C(=O)N2NC(=O)Cc2ccccc2)cc1 (stereo not given); > 100 µM (inactive)
CS/C(c1ccccc1)=[N+](\[O-])Cc1ccccc1; > 100 µM (inactive)
CC1CC2CCCC(=O)C2=C(O)O1 (stereo not given); > 100 µM (inactive)
CCOC(=O)CCC(NC(=O)c1ccc(Oc2nc3ccccc3nc2C(=O)OCC)cc1)C(=O)OCC (stereo not given); > 100 µM (inactive)

Moving on to the next molecule.
Sample C[C@]12CC[C@@H]3c4ccc(O)cc4CC[C@H]3[C@@H]1C/C(=C\c1ccncc1)[C@@H]2O — what was its GI50?
14.8 µM (inactive)
